- Protocol: Elimination half life in human at 150 mg, po
- Particulars: in vivo
Attribute Measured: half-life

Given c1ccc([C@H]2CN3CCSC3=N2)cc1 [LEVAMISOLE] , state its recorded half-life.
5.6 h

---

- Protocol: in vivo
- Particulars: dog, iv, 10 mg/kg
- Description: Elimination half life in dog at 10 mg/kg, iv
Attribute Measured: half-life (h)
Numbers only; they are read as h.

Given c1ccc([C@H]2CN3CCSC3=N2)cc1 , state its recorded half-life.
1.8

---

- Protocol: Half life in blood (unknown origin)
Attribute Measured: half-life

Given c1ccc([C@H]2CN3CCSC3=N2)cc1 [LEVAMISOLE] , state its recorded half-life.
< 6 h

---

- Protocol: Plasma clearance in human at 150 mg, po
Attribute Measured: CL/F (L/h/kg)
Numbers only; they are read as L/h/kg.

Given c1ccc([C@H]2CN3CCSC3=N2)cc1 , state its recorded CL/F.
0.482
